Test system: A204
Test: relative viability vs DMSO control (72 h) (fraction); higher = more viable cells
Details: 0.00051 µM
ENDPOINT: relative viability

                                    compound   tgt            endpoint  value_observed
 0  CNC(=O)c1nnc(NC(=O)C2CC2)cc1Nc1cccc(-c2ncn(C)n2)c1OC  A204  relative viability            1.09
 1  COc1cc(Nc2ncc(F)c(Nc3ccc4c(n3)N(COP(=O)(O)O)C(=O)C(C)(C)O4)n2)cc(OC)c1OC  A204  relative viability            1.08
 2  CC1(COc2ccc3c(c2)ncn3-c2ccc3cccc(N4CCC(N)CC4)c3n2)COC1  A204  relative viability            1.07
 3  COc1cc(CCc2cc(NC(=O)c3ccc(N4CC(C)NC(C)C4)cc3)n[nH]2)cc(OC)c1 (stereo unspecified)  A204  relative viability            1.06
 4   O=c1sn(-c2cccc3ccccc23)c(=O)n1Cc1ccccc1  A204  relative viability            1.13
 5  CC(C)(O)CNc1nc(Nc2ccnc(C(F)(F)F)c2)nc(-c2cccc(C(F)(F)F)n2)n1  A204  relative viability            1.08
 6          O=S(=O)(c1cccc2cnccc12)N1CCCNCC1  A204  relative viability            0.98
 7  CN1CCN(c2ccc(C(=O)Nc3n[nH]c4ccc(Cc5cc(F)cc(F)c5)cc34)c(NC3CCOCC3)c2)CC1  A204  relative viability            1.06
 8  CCN(CC)CCNC(=O)c1c(C)[nH]c(/C=C2\C(=O)Nc3ccc(F)cc32)c1C  A204  relative viability            1.03
 9  CCc1cnn2c(NCc3ccc[n+]([O-])c3)cc(N3CCCC[C@H]3CCO)nc12  A204  relative viability            1.02
10  Cc1cc2c(F)c(Oc3ncnn4cc(OC[C@@H](C)O)c(C)c34)ccc2[nH]1  A204  relative viability            1.04
